# measured.on: Oxytocin receptor (Rattus norvegicus)
# Sequence (P70536 whole entry): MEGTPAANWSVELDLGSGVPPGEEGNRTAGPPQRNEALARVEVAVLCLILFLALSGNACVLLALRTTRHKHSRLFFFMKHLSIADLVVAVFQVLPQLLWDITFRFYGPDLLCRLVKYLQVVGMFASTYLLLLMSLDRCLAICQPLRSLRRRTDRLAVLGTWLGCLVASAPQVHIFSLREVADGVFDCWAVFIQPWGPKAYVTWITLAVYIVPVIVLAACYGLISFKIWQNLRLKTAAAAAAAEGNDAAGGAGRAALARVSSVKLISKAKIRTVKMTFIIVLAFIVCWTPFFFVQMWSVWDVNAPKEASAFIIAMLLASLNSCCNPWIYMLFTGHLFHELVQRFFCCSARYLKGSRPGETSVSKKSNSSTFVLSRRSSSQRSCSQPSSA
Recorded Ki values for a group of compounds are listed next.
Give the value, in units of nM, as a plain number.

compound: Cc1ccccc1C(=O)Nc1ccc(C(=O)N2CCCC(N(C)C)c3ccccc32)cc1 (configuration not stated)
measured.on: Oxytocin receptor (Rattus norvegicus)
Ki / nM: 1550

Answer with the recorded Ki of `CC(=O)NCCCOc1ccc(C(=O)N2CCC(N3C(=O)CCc4ccccc43)CC2)cc1` only.
333

###

# measured.on: Vasopressin V1a receptor (Rattus norvegicus, UniProt P30560)
# Sequence (P30560 whole entry): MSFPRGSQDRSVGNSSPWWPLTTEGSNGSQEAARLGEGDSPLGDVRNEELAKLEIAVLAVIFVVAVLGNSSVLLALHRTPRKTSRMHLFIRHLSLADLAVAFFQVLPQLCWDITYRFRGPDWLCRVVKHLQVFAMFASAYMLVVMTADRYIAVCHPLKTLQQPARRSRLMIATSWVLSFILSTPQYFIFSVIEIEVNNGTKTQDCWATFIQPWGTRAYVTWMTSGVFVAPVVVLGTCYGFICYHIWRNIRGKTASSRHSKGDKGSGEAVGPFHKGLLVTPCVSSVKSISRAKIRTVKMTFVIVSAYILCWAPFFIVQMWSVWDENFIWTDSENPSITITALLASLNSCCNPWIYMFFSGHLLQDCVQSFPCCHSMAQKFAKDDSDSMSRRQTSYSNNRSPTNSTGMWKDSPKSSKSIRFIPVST
measure: Ki (nM)
Enter your answer as a number in nM; do not include the unit.

Recall the reported Ki of Cc1ccccc1C(=O)Nc1ccc(C(=O)N2CCCC(N(C)C)c3ccccc32)cc1 (stereo unspecified) on Vasopressin V1a receptor (Rattus norvegicus, UniProt P30560) and write it down.
232

###

# measured.on: Vasopressin V2 receptor (Rattus norvegicus, UniProt Q00788)
# Sequence (Q00788 whole entry): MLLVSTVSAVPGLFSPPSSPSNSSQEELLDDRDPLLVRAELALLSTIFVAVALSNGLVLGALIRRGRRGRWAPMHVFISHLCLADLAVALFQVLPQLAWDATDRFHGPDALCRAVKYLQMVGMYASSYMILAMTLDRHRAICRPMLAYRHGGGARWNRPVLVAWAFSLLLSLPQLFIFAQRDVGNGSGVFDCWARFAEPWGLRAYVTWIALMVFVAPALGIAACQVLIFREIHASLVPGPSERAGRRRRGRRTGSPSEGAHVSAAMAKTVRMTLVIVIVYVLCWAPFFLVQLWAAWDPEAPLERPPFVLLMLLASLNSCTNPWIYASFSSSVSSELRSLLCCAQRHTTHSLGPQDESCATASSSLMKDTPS
measure: Ki

Fill in reported Ki for this entry: `CC(=O)NCCCOc1ccc(C(=O)N2CCC(N3C(=O)CCc4ccccc43)CC2)cc1`
> 10 µM
